Attribution: PubChem BioAssay AID488969

target: Metabotropic glutamate receptor 8 (Rattus norvegicus) (UniProt P70579); test: mGluR8 Gi/Go-coupled signaling modulation – cell-based, rat, thallium flux, HTS, primary screen (AID 488969); details: HEK293 rat mGluR8, GIRK (G protein-gated inwardly rectifying potassium channel) thallium flux, FluoZin2; at 10 µM; stronger effect = higher value; submaximal glutamate (EC20) added with thallium
Sequence (P70579 whole entry, looked up): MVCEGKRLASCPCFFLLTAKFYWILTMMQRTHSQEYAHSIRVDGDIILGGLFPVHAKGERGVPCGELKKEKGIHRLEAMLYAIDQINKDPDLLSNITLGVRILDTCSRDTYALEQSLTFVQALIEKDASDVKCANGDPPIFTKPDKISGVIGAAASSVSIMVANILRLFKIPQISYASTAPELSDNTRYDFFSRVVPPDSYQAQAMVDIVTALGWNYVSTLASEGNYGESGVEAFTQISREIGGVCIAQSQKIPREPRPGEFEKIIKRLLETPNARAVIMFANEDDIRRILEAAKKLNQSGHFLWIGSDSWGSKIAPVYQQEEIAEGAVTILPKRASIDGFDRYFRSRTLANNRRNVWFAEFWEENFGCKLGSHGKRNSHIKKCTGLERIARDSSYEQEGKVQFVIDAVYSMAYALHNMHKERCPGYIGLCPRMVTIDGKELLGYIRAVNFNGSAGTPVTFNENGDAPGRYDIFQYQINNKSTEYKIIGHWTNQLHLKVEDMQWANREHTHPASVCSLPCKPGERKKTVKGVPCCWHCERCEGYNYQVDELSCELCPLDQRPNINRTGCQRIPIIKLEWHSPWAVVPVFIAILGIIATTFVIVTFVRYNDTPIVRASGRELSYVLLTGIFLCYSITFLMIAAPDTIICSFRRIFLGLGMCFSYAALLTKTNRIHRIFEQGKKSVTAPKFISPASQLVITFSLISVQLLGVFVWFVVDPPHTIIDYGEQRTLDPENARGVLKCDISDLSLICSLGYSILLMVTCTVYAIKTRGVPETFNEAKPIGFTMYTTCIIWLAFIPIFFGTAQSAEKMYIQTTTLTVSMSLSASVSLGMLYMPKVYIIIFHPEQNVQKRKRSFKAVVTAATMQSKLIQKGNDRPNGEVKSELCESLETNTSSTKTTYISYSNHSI
Whole data set: some 110,000 compounds, median “z-score” near -0.1, cut for the highest 2% near 2. This excerpt belongs to a sample that is enriched for the highest values.
// bucketize z-score: category 1 = under -0.03, category 2 = from -0.03 up to 0.4, category 3 = 0.4 and over

Consider the following illustrative entries.
compound=O=C(Nc1nc(=O)c2ccccc2s1)c1ccccc1 measured_target="Metabotropic glutamate receptor 8 (Rattus norvegicus) (UniProt P70579)" classification="category 3"
compound="O=C(Cc1c(F)cccc1Cl)NCC1CCCO1 (stereo not drawn)" measured_target="Metabotropic glutamate receptor 8 (Rattus norvegicus) (UniProt P70579)" classification="category 2"
compound=CN(Cc1ccccc1)c1ccc(N2C(=O)CCCC2=O)cc1[N+](=O)[O-] measured_target="Metabotropic glutamate receptor 8 (Rattus norvegicus) (UniProt P70579)" classification="category 1"
compound="CC1(C)CC(=O)C2=C(C1)NC(=O)CC2c1ccc(F)cc1 (stereo not drawn)" measured_target="Metabotropic glutamate receptor 8 (Rattus norvegicus) (UniProt P70579)" classification="category 1"
compound=Cc1ccc2cc(COC(=O)c3ccncc3)c(=O)[nH]c2c1 measured_target="Metabotropic glutamate receptor 8 (Rattus norvegicus) (UniProt P70579)" classification="category 1"

// query Which class holds "Cc1nc(NCCCO)c(C#N)c2c1COC(C)(C)C2" ?
// result category 3

// query And what about the compound "O=C1CC(c2ccccc2)=Nc2ccccc2N1" ?
// result category 2

// query And what about the compound "CN(CC(=O)NCCN1CCN(c2ccccc2)CC1)S(=O)(=O)c1ccc2c(c1)CCC(=O)N2" ?
// result category 2

// query And what about the compound "CCC(C)(C)NC(=O)CN(Cc1cccs1)C(=O)CNS(=O)(=O)c1ccc(C)cc1" ?
// result category 2

// query And what about the compound "CC1(C)Cc2nc(NCCN3CCOCC3)c(C#N)cc2CO1" ?
// result category 3

// query And what about the compound CC(=O)N1CCN(CC(O)COc2ccc(OCc3ccccc3)cc2)CC1 (stereo not drawn) ?
// result category 2

// query And what about the compound "CC1=CC(C)(C)n2c(O)c(N=NC(N)=S)c3c(C)ccc1c32" ?
// result category 3

// query And what about the compound "COc1ccc(-c2cc(-c3ccccc3)c(C#N)c(SCC(=O)Nc3ncc(C)s3)n2)cc1" ?
// result category 1

// query And what about the compound "CCOCCCNC(=O)CCCOc1ccccc1" ?
// result category 2

// query And what about the compound "C#CCn1c(=NC(=O)c2ccccc2[N+](=O)[O-])sc2cc(S(C)(=O)=O)ccc21" ?
// result category 1

// query And what about the compound COc1ccccc1S(=O)Cc1ccc(C(=O)NCc2ccccc2Cl)o1 (stereo not drawn) ?
// result category 1

// query And what about the compound "c1ccc(Cn2c(Sc3nnnn3-c3ccccc3)nnc2-c2ccccc2)cc1" ?
// result category 2

// query And what about the compound "CC(C)CCNc1nc2c(cc1C#N)COC(C)(C)C2" ?
// result category 1

// query And what about the compound "c1ccc(-c2nnc(-c3ccccc3)c(-c3c[nH]c4ccccc34)n2)cc1" ?
// result category 3

// query And what about the compound "CC1=CC(C)(C)n2c(O)c(N=NC(N)=S)c3cccc1c32" ?
// result category 3

// query And what about the compound CC1CN(C(=O)C2CCCCC2)C(C)CN1C(=O)C1CCCCC1 (stereo not drawn) ?
// result category 3

// query And what about the compound "CC1=CC(C)(C)n2c(O)c(N=NC(N)=S)c3cc(C)cc1c32" ?
// result category 3

// query And what about the compound CC1CCCC(NC(=O)Cn2cc3c(n2)CCCCC3)C1C (stereo not drawn) ?
// result category 2
